# target: MAT2A (Homo sapiens, UniProt P31153)
# Construct: His6
# Sequence (P31153 whole entry): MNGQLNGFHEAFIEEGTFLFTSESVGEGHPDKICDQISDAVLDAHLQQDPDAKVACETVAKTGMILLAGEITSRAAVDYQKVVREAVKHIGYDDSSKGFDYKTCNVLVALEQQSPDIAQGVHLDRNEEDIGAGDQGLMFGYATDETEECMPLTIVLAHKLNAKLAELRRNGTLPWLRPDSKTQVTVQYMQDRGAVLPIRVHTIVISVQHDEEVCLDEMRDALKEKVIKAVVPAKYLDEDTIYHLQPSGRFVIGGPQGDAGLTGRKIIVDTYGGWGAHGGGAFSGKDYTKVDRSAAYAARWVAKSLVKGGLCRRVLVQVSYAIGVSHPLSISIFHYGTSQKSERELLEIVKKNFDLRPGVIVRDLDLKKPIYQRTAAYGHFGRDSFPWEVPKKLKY
# experiment.summary: MAT2A biochemical assay (colorimetric inorganic phosphate detection, PiColorLock)
# details: recombinant His6-tagged MAT2A 1 μg/ml; 60 minutes preincubation at 25° C.; L-Met 80 μM, ATP 100 μM; 60 minutes reaction; read at 623 nm; read-out: MAT2A Inhibition Score
property: IC50

compound: Cc1[nH]c2c(N3CCCCC3)c(-c3ccccc3)nn2c(=O)c1N1CCOCC1 [Compound 302]
target: MAT2A (Homo sapiens, UniProt P31153)
IC50: 100 to 1000 nM
//
compound: NCc1[nH]c2c(C3=CCCCC3)c(-c3ccccc3)nn2c(=O)c1-c1ccc2nccnc2c1 [Compound 234]
target: MAT2A (Homo sapiens, UniProt P31153)
IC50: < 100 nM
//
compound: Cc1[nH]c2c(N3CCC(F)(F)CC3)c(-c3ccccc3)nn2c(=O)c1-c1ccc2ncccc2c1 [Compound 207]
target: MAT2A (Homo sapiens, UniProt P31153)
IC50: < 100 nM

Kindly review the next compound as well.
What IC50 value was documented for this compound, COc1ccc(-c2c(C(N)=O)[nH]c3c(-c4ccccc4)c(-c4ccccc4)nn3c2=O)cc1 [Compound 315] ?
100 to 1000 nM

====

# target: MAT2A (Homo sapiens)
# Construct: His6
# experiment.summary: MAT2A biochemical assay (colorimetric inorganic phosphate detection, PiColorLock)
# details: recombinant His6-tagged MAT2A 1 μg/ml; 60 minutes preincubation at 25° C.; L-Met 80 μM, ATP 100 μM; 60 minutes reaction; read at 623 nm; read-out: MAT2A Inhibition Score
property: IC50

Examples from the recorded data:
item.smiles: COc1ccc(-c2c(Oc3cccnn3)[nH]c3c(-c4ccccc4)c(-c4ccccc4)nn3c2=O)cc1
IC50: 1000 to 10000 nM
--
item.smiles: O=C(NCc1cc[nH]n1)c1[nH]c2c(-c3ccccc3)c(-c3ccccc3)nn2c(=O)c1-c1ccc2ncccc2c1
IC50: 1000 to 10000 nM
--
item.smiles: COc1ccc(-c2c(Nc3ccc(N)nn3)[nH]c3c(-c4ccccc4)c(-c4ccccc4)nn3c2=O)cc1
IC50: < 100 nM

What IC50 value was documented for this compound, `COc1ccc(-c2c(Nc3ncns3)[nH]c3c(-c4ccccc4)c(-c4ccccc4)nn3c2=O)cc1` ?
< 100 nM

====

# target: MAT2A (Homo sapiens)
# Construct: His6
# experiment.summary: MAT2A biochemical assay (colorimetric inorganic phosphate detection, PiColorLock)
# details: recombinant His6-tagged MAT2A 1 μg/ml; 60 minutes preincubation at 25° C.; L-Met 80 μM, ATP 100 μM; 60 minutes reaction; read at 623 nm; read-out: MAT2A Inhibition Score
property: IC50

item.smiles: Cc1[nH]c2c(N3CCCCC3)c(-c3ccccc3)nn2c(=O)c1-c1cc[nH]c(=O)c1
IC50: 1 to 10 µM
//
item.smiles: COc1ccc(-c2c(Nc3ccc(F)cn3)[nH]c3c(-c4ccccc4)c(-c4ccccc4)nn3c2=O)cc1
IC50: < 0.1 µM
//
item.smiles: O=c1c(-c2ccc(O)cc2)c(Nc2nc[nH]n2)[nH]c2c(-c3ccccc3)c(-c3ccccc3)nn12
IC50: < 0.1 µM

Kindly review the next compound as well.
What IC50 value was documented for this compound, `COc1ccc(-c2c(Nc3ccon3)[nH]c3c(-c4ccccc4)c(-c4ccccc4)nn3c2=O)cc1` ?
< 0.1 µM
